Test system: Candida albicans
particulars: Concentration 32 ug.mL-1; ASSAY_TEST Inhibition of Fungal Growth; detection method Absorption (OD530)
Description: Antifungal activity against Candida albicans ATCC 90028 (CO-ADD:FG_001); MIC in YNB media using NBS plates, by OD630
Entries with a potency or affinity are not part of this list.
For each record, write down the corresponding Inhibition.
Phrase the answer as number then unit, nothing more needed.

Please give measured Inhibition of the following entry: CCOC(=O)c1ccc(NC(=O)Cn2nc3ccc(SC(C)(C)C)nn3c2=O)cc1
5.28%

Please give measured Inhibition of the following entry: CC(C)c1ccc(NC(=O)Cn2nc3c(SCc4ccccc4)nccn3c2=O)cc1
10.67%

Please give measured Inhibition of the following entry: COc1ccccc1NC(=O)CSc1nnc2c(=O)n(-c3ccc(C)c(C)c3)ccn12
1.21%

Please give measured Inhibition of the following entry: COC(=O)c1ccc(NC(=O)Cn2nc3c(N4CCOCC4)nccn3c2=O)cc1
2.39%

Please give measured Inhibition of the following entry: O=C(Cn1nc2c3cc(F)ccc3ncn2c1=O)Nc1ccc2c(c1)OCO2
3.33%

Please give measured Inhibition of the following entry: Cc1cc(C)cc(Nc2nc(C)cc3nn(CC(=O)NC4CCCCC4)c(=O)n23)c1
1.39%

Please give measured Inhibition of the following entry: COc1cccc(-n2ccn3c(SCC(=O)Nc4ccc(OC)c(OC)c4)nnc3c2=O)c1
5.16%

Please give measured Inhibition of the following entry: CCc1ccccc1Sc1nccn2c(=O)n(CC(=O)Nc3cc(Cl)c(OC)cc3OC)nc12
17.44%

Please give measured Inhibition of the following entry: CCc1ccc(N(Cc2cccc(C)c2)S(=O)(=O)c2cccn3c(C)nnc23)cc1
4.84%

Please give measured Inhibition of the following entry: COc1ccc(-c2cc3c4nn(CC(=O)Nc5cc(Cl)ccc5C)c(=O)n4ccn3n2)cc1
1.63%
